# Tested system: Rvs167, P39743
# Sequence (P39743 419-482): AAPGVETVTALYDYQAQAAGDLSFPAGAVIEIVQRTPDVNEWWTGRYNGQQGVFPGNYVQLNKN
# Assay procedure: SPOT array
# Details: median of control spots 2707
Experimental readout: SPOT intensity

// worked examples, SPOT intensity included
• GSKSGPPPRPKKPST = 1
• DHPKGPPPPPPPDEK = 0
• KLSRGRYGLPLSSRP = 3
• RFKRHRLEFPFNESE = 0
• SRQAIPPPVPNRPGG = 833
• PHNPSPFFPPPDFND = 0

[a] KWVRRPKLMTPLTFS
[b] ERPKRRAPPPVPKKP
Lower value for measured SPOT intensity? Options: a , b Give the chosen item's label as your response.
a

Data provenance: paper PMC2756588
